Recorded cytotoxicity EC50 values for a group of binders are listed next.
- TESTED ON: T1, human SLC34A2 (human, UniProt O95436 1-690)
- T1 sequence (looked up): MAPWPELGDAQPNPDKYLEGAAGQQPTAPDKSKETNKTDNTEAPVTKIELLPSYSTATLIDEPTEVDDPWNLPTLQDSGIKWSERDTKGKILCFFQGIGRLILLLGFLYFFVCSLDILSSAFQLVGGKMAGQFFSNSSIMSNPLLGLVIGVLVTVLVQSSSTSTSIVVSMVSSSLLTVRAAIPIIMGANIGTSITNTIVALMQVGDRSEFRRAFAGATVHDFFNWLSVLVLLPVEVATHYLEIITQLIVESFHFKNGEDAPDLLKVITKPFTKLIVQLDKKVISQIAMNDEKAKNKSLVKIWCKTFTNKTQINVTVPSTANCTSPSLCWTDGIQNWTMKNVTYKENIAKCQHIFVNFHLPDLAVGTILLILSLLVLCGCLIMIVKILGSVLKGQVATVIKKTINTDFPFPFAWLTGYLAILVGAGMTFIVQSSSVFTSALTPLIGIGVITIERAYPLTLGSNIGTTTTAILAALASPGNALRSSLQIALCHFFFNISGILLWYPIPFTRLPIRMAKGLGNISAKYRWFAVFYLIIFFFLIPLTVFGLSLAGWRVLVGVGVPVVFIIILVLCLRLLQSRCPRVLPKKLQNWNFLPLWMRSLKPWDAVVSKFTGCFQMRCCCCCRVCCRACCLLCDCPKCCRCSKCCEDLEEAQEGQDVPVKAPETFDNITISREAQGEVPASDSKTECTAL
- TEST METHOD NOTES: cell-based or functional assay
Use pM as the unit, but write only the number.

Check out these entries, answers already filled in.
- BINDER: "xi71F7D4 hIgG1 (antibody, V domains shown, chimeric, hIgG1) VH: DVKLVESGGDLVKLGGSLKLSCAASGFTFSNYYMSWVRQTPEKRLELVAVINSNGGTTYYPDNMKGRFTISRDNAKNTLYLQTSSLKSEDTALYYCGRHEHYYGTNIAWFAYWGQGTLVTVSA VL: DIVMTQSHKFMSTSVGDRVSITCKASQDVTTAVAWYQQKPGQSPKLLIYWASTRHTGVPDRFTGSGSGTDHTLTISSVQAEDLALYYCQQHYSTPVTFGGGTKLEIK"
  UNIT INFO: "pM"
  QUANTITATIVE READOUT: 830
- BINDER: "xi87H12B7 hIgG1 (antibody, V domains shown, chimeric, hIgG1) VH: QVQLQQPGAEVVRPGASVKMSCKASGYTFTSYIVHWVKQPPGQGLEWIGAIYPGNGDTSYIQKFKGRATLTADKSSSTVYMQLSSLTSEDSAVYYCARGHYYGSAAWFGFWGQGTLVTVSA VL: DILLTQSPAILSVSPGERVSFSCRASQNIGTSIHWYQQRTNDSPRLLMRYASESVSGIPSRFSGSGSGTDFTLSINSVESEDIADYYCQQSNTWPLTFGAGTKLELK"
  UNIT INFO: "pM"
  QUANTITATIVE READOUT: 350
- BINDER: "xi91C9F1 hIgG1 (antibody, V domains shown, chimeric, hIgG1) VH: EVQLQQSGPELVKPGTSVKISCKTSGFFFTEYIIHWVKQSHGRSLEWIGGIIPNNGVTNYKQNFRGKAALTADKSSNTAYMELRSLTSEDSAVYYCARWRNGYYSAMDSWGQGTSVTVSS VL: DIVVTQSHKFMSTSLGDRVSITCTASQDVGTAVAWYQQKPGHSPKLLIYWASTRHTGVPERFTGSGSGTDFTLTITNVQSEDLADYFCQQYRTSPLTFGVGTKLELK"
  UNIT INFO: "pM"
  QUANTITATIVE READOUT: 800

Ask: # cytotoxicity EC50 lookup, item xi90G10H7 hIgG1 (antibody, V domains shown, chimeric, hIgG1) VH: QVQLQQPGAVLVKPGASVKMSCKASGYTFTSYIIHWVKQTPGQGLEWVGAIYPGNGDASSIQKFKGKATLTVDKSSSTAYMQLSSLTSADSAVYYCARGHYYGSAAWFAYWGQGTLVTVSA VL: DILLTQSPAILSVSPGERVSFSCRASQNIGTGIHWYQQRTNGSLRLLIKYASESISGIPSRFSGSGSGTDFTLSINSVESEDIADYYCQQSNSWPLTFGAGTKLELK
Result: 280

Ask: What cytotoxicity EC50 value was documented for this binder, xi28G3C6B9 hIgG1 (antibody, V domains shown, chimeric, hIgG1) VH: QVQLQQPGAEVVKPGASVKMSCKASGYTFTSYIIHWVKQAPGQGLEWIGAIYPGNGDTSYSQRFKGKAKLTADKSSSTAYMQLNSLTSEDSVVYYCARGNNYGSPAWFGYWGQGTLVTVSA VL: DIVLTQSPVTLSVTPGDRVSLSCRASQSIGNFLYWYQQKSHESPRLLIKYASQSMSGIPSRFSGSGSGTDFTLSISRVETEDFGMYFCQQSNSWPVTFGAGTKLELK ?
Result: 360
